- Tested on: CEM cells HIV-1 protection, formazan growth assay
- Experiment summary: NCI AIDS Antiviral Assay
- Test context: measured here: growth of uninfected CEM cells
Value type: pIC50
Numbers only, as −log10 of the molar value.

Please review the following examples before continuing.
>  <Smiles notation>
O=S(=O)(O)Cc1ccc([As](=O)(O)O)cc1

>  <pIC50>
3.89

$$$$
>  <Smiles notation>
Cc1nc2c(=O)n(C)c(=O)nc-2n(CCO)c1C

>  <pIC50>
4.08

$$$$
>  <Smiles notation>
Cc1c(/C=N/NC(=O)c2ccccc2O)c(=O)n(-c2ccccc2)n1C

>  <pIC50>
4.16

$$$$

Next up:
Endpoint output: pIC50 of O=S(=O)(c1ccc(O)cc1)c1ccc(I)cc1 . Value?
4.19

* * *

- Tested on: CEM cells HIV-1 protection, formazan growth assay
- Experiment summary: NCI AIDS Antiviral Assay
Value type: EC50

Give me EC50 for each of these compounds, listed below.
1. CCCc1[nH]nc(CCC(=O)N(Cc2ccccc2)Cc2ccccc2)c1CC
2. O=C(NCc1ccc(Cl)c(Cl)c1)c1nc2ccccc2nc1NCc1ccc(Cl)c(Cl)c1
3. Cc1cnc2sn(-c3ccc(Oc4ccccc4)cc3)c(=O)c2c1
4. CCOC1C(CC/C=C\c2ccccc2)CCCCN1C(=O)OC(C)(C)C (stereo not given)
5. COC1(C)C(=O)N2C1N(C(=O)OC(C)(C)C)CC2(C)C (stereo not given)

1: > 331 µM; 2: > 126 µM; 3: > 200 µM; 4: > 251 µM; 5: > 380 µM

Give me EC50 for each of these compounds, listed below.
1. COc1ccc(C(=C2C(=O)OC(=O)C2=C(C)C)c2ccc(OC)cc2)cc1
2. Cc1ccccc1S(=O)(=O)N1CCN(S(=O)(=O)c2ccccc2C)CC1
3. CCOC(=O)CCC1(C)OC[C@H]2OC(n3cc(C)c(=O)[nH]c3=O)C[C@H]2N1O (stereo not given in full)

1: > 200 µM; 2: > 200 µM; 3: > 200 µM

Give me EC50 for each of these compounds, listed below.
1. C/C(=N\NC(=S)Nc1ccccc1)[C@H]1C2CCC(C2)C1C/C=C\CCCC(=O)O (stereo not given in full)
2. N=C(N)N=Nc1cc(O)c(NN=C(N)N)cc1O

["> 229 µM", "> 200 µM"]

* * *

Field: pIC50. Provide a value for each of the molecules that follow.
- Tested on: CEM cells HIV-1 protection, formazan growth assay
- Experiment summary: NCI AIDS Antiviral Assay
- Test context: measured here: growth of uninfected CEM cells
pIC50: −log10 of the molar value.

Please review the following examples before continuing.
>  <Molecule>
CC1=C/N\C(C#N)=C(C#N)/N=C/C(C)=C\N\C(C#N)=C(C#N)/N=C\1

>  <Value type>
pIC50

>  <Measured result>
< 3.70

$$$$
>  <Molecule>
COc1ccc(/C=C(\NC(=O)c2ccccc2)C(=O)NN(C)c2ccnc3cc(Cl)ccc23)cc1OC

>  <Value type>
pIC50

>  <Measured result>
4.25

$$$$
>  <Molecule>
CC(=O)OC12CCCCC(CCCC1)O2

>  <Value type>
pIC50

>  <Measured result>
< 3.70

$$$$
>  <Molecule>
Cc1nc(C)c(N2CCN([N+](=O)[O-])CC2)c(=O)[nH]1

>  <Value type>
pIC50

>  <Measured result>
< 3.70

$$$$
>  <Molecule>
O=C(Nc1ccc(O)c(C(=O)O)c1)c1ccccc1

>  <Value type>
pIC50

>  <Measured result>
< 3.70

$$$$

Next up:
Endpoint output: pIC50 of OC1(c2ccccc2)CCCCCCCCC(O)(c2ccccc2)CCCCCCCC1 (stereo unspecified) . Value?
< 3.70
